Just for reference, patent EP4741392A1 is where these values come from.

Test system: OCI-LY10 cells
method.notes: Viability assay of OCI-LY10 cells (CTG)
Type: cell-based
condition.parameters: Homo sapiens, OCI-Ly10, 120 h, cell viability, read-out: OCl-Ly10
Method: The in vitro antiproliferative activity of the compounds of the present disclosure against TMD8 cells and OCI-LY10 cells was assayed using CTG (Cell Titer-Glo) luminescent cell viability assay. […] The data were analyzed using XL-fit software (supplier: ID Business Solutions Ltd., software version: XL fit 5.5.0.5). Nonlinear regression was performed using X=Log(X), and the X values were transformed using a four-parameter Logistic model 205, from which the IC50 values were calculated. […]
measured.metric: IC50

[[record]]
input_smiles = "COc1ccc(F)cc1C(=O)NCc1ccc(-c2ncc(-c3ccc(C(=O)N4C[C@H](C)O[C@@H](C)C4)cn3)c3[nH]nc(N)c23)cc1"
reported_measurement = "≤ 5 nM"

[[record]]
input_smiles = "CCN1CCn2nc(-c3cnc(-c4ccc(CNC(=O)c5cc(F)ccc5OC)cc4)c4c(N)n[nH]c34)cc2C1"
reported_measurement = "≤ 5 nM"

[[record]]
input_smiles = "COc1ccc(F)cc1C(=O)NCc1ccc(-c2ncc(-c3ccc(OCCN4CCCC4)cn3)c3[nH]nc(N)c23)cc1"
reported_measurement = "≤ 5 nM"

